- Test system: E18 rat cortical neuron-glia co-culture
- PROCEDURE SUMMARY: fiber score / MBP score (myelination specific beyond OL differentiation) (ratio); higher = more myelination-specific MBP alignment
- TEST CONDITIONS: 5 µM; treatment time: 8 days (DIV5-DIV13)
MEASURED QUANTITY: fiber score / MBP score
Give only the figure.

Per the records, this molecule ( Cc1occc(=O)c1O ) has fiber score / MBP score equal to 0.672

Measured fiber score / MBP score of CCCc1nc2c(C)cc(-c3nc4ccccc4n3C)cc2n1Cc1ccc(-c2ccccc2C(=O)O)cc1 : 0.799

Form field fiber score / MBP score, entry C[C@H]1c2cccc(O)c2C(=O)C2=C(O)[C@]3(O)C(=O)C(C(N)=O)=C(O)[C@@H](N(C)C)[C@@H]3[C@@H](O)[C@@H]21 : 0.815

According to the records, this molecule C/C=C1\[C@H]2C=C(C)C[C@]1(N)c1ccc(=O)[nH]c1C2 displays fiber score / MBP score of 0.872

For record CN1CCN(C2=Nc3cc(F)ccc3Cc3ccccc32)CC1 the listed fiber score / MBP score is 0.587

Entry O=C(O[C@@H]1Cc2c(O)cc(O)cc2O[C@@H]1c1cc(O)c(O)c(O)c1)c1cc(O)c(O)c(O)c1 [Epigallocatechin gallate] , fiber score / MBP score reported as 1.01

Value of measured fiber score / MBP score for the entry Cc1nnc(SCC2=C(C(=O)O)N3C(=O)[C@@H](NC(=O)Cn4cnnn4)[C@H]3SC2)s1 : 1.19

Reported fiber score / MBP score of COc1cc(-c2ccc(=O)[nH]n2)ccc1OC(F)F : 0.397

---

Consider the following compounds; for each one, report its fiber score / MBP score.
- Tested on: E18 rat cortical neuron-glia co-culture
- PROCEDURE SUMMARY: fiber score / MBP score (myelination specific beyond OL differentiation) (ratio); higher = more myelination-specific MBP alignment
- TEST CONDITIONS: 1 µM; treatment time: 8 days (DIV5-DIV13)
No unit in the answer, only the number.

// fiber score / MBP score value for CCc1c(C)[nH]c2c1C(=O)C(CN1CCOCC1)CC2 (stereo not drawn) [Molindone] : 0.619

Consider CC(c1cc2ccccc2s1)N(O)C(N)=O (stereo not drawn) [Zileuton] . Its measured fiber score / MBP score is 0.599

// fiber score / MBP score lookup, compound = COc1c(N2C[C@@H]3CCCN[C@@H]3C2)c(F)cc2c(=O)c(C(=O)O)cn(C3CC3)c12 [Moxifloxacin] , result: 0.766

Notebook: OCCN1C[C@H](O)[C@@H](O)[C@H](O)[C@H]1CO [Miglitol] , fiber score / MBP score read as 0.881

Briefly, fiber score / MBP score measured for O=C(O[C@H]1[C@H](Oc2ccccc2COC(=O)C2(O)C=CCCC2=O)O[C@H](CO)[C@@H](O)[C@@H]1O)c1ccccc1 (stereo partly drawn) [Tremulacin] : 0.746

The compound listed as CC(C)OC(=O)C(C)(C)Oc1ccc(C(=O)c2ccc(Cl)cc2)cc1 [Fenofibrate] has a reported fiber score / MBP score of 0.901

fiber score / MBP score for CCC(=O)O[C@@H]1CC(=O)O[C@H](C)C/C=C/C=C/[C@H](O)[C@H](C)C[C@H](CC=O)[C@H](O[C@@H]2O[C@H](C)[C@@H](O[C@H]3C[C@@](C)(O)[C@@H](OC(=O)CC)[C@H](C)O3)[C@H](N(C)C)[C@H]2O)[C@H]1OC [Midecamycin] is 0.757

Just so you know, measured fiber score / MBP score for CN(C)CCN(Cc1ccccc1)c1ccccn1 [Tripelennamine] came out at 0.67

---

- Tested on: E18 rat cortical neuron-glia co-culture
- PROCEDURE SUMMARY: fiber score / MBP score (myelination specific beyond OL differentiation) (ratio); higher = more myelination-specific MBP alignment
- TEST CONDITIONS: 1 µM; treatment time: 8 days (DIV5-DIV13)
Field: fiber score / MBP score. Provide a value for each of the compounds that follow.
Output: the number by itself.

Quick note, fiber score / MBP score for CC1=Nc2ccc(Cl)cc2S(=O)(=O)N1 [Diazoxide] landed at 1.25

Consider CCCCCNC(=N)N/N=C/c1c[nH]c2ccc(OC)cc12 . Its measured fiber score / MBP score is 0.56

Recorded fiber score / MBP score (compound CN1C(=O)CC[C@H]1c1cccnc1 ): 0.604

Data point: C[C@H](CCC(=O)O)[C@H]1CC[C@H]2[C@@H]3C(=O)C[C@@H]4CC(=O)CC[C@]4(C)[C@H]3CC(=O)[C@]12C [Dehydrocholic Acid] ; fiber score / MBP score = 0.477

Lab note: measured fiber score / MBP score of CC(C)(C)NC(=O)[C@@H]1CN(Cc2cccnc2)CCN1C[C@@H](O)C[C@@H](Cc1ccccc1)C(=O)N[C@H]1c2ccccc2C[C@H]1O was 0.908

Lab note: CN(C)[C@@H]1C(O)=C(C(N)=O)C(=O)[C@@]2(O)C(O)=C3C(=O)c4c(O)cccc4C[C@H]3C[C@@H]12 gave fiber score / MBP score of 0.961

Value of fiber score / MBP score reported for the compound Cc1ccc(-c2cc(C(F)(F)F)nn2-c2ccc(S(N)(=O)=O)cc2)cc1 is 0.757

// CCN(CC)CCNC(=O)c1ccc(N)cc1 [Procainamide] : fiber score / MBP score value = 0.82

Field fiber score / MBP score (entry CN1CCN(CCCN2c3ccccc3Sc3ccc(C(F)(F)F)cc32)CC1 ) reads 0.177

---

- System: E18 rat cortical neuron-glia co-culture
- PROCEDURE SUMMARY: myelination (MBP fiber length per Olig2+ nucleus), % of 1 µM DAPT response (DMSO = 0) (% of DAPT); higher = more myelination, active = 50 or more
- TEST CONDITIONS: 5 µM; treatment time: 8 days (DIV5-DIV13)
MEASURED QUANTITY: myelination
In your answer, state the number alone without any accompanying words.

Just so you know, measured myelination for CCOC(=O)CCC(=O)O[C@H]1[C@H](O[C@@H]2[C@@H](C)[C@H](O[C@H]3C[C@@](C)(OC)[C@@H](O)[C@H](C)O3)[C@@H](C)C(=O)O[C@H](CC)[C@@](C)(O)[C@H](O)[C@@H](C)C(=O)[C@H](C)C[C@@]2(C)O)O[C@H](C)C[C@@H]1N(C)C [Erythromycin Ethylsuccinate] came out at -16.3

Entry COCCOC(=O)C1=C(C)NC(C)=C(C(=O)OC(C)C)C1c1cccc([N+](=O)[O-])c1 (centres undefined) ; myelination = -24.9

// CN(C)[C@@H]1C(O)=C(C(=O)NCN2CCCC2)C(=O)[C@@]2(O)C(O)=C3C(=O)c4c(O)cccc4[C@@](C)(O)[C@H]3C[C@@H]12 : myelination value = -5.55

Notebook: CN(C)[C@@H]1C(O)=C(C(N)=O)C(=O)[C@@]2(O)C(O)=C3C(=O)c4c(O)cccc4C[C@H]3C[C@@H]12 , myelination read as -15

Lab note: measured myelination of CCCC1O[C@@H]2C[C@H]3[C@@H]4CCC5=CC(=O)C=C[C@]5(C)[C@H]4[C@@H](O)C[C@]3(C)[C@]2(C(=O)CO)O1 (some centres undefined) [Budesonide] was -18.8

Field myelination (entry CCOc1ccc2ccccc2c1C(=O)N[C@@H]1C(=O)N2[C@@H]1SC(C)(C)[C@@H]2C(=O)O ) reads -9.33

What the record says about O=C(c1ccccc1)c1ccc2n1CCC2C(=O)O (centres undefined) : myelination is 2.63

Lookup result for O=C(O)Cc1ccccc1Nc1c(Cl)cccc1Cl ; measured myelination: -15.6

// myelination value for CCC1(c2ccccc2)C(=O)NCNC1=O : -3.74

# compound Clc1ccccc1C(c1ccccc1)(c1ccccc1)n1ccnc1 ; its myelination = -27.1

Lookup result for CNS(=O)(=O)Cc1ccc2[nH]cc(CCN(C)C)c2c1 ; measured myelination: -5.9

Sure, the documented myelination for CC1(C)S[C@@H]2[C@H](NC(=O)Cc3ccccc3)C(=O)N2[C@H]1C(=O)O is 4.95

Kindly note the recorded myelination for Clc1ccc2nsnc2c1NC1=NCCN1 , which is -54.3

Consider CN(C)[C@@H]1C(O)=C(C(N)=O)C(=O)[C@@]2(O)C(O)=C3C(=O)c4c(O)cccc4[C@@](C)(O)[C@H]3[C@H](O)[C@@H]12 . Its measured myelination is -10.5

Just so you know, measured myelination for CC1(C)O[C@@H]2C[C@H]3[C@@H]4C[C@H](F)C5=CC(=O)C=C[C@]5(C)[C@@]4(F)[C@@H](O)C[C@]3(C)[C@]2(C(=O)CO)O1 [Fluocinolone Acetonide] came out at 6.47

What the record says about CC(C)Oc1ccc2c(=O)c(-c3ccccc3)coc2c1 : myelination is -7.62

Kindly note the recorded myelination for CC(C(O)c1ccc(O)cc1)N1CCC(Cc2ccccc2)CC1 (centres undefined) , which is -83.6

myelination recorded for this compound, NS(=O)(=O)c1cc(C2(O)NC(=O)c3ccccc32)ccc1Cl (centres undefined) , is 7.87

Query O=C(O)c1cccnc1 yields myelination of 7.38

The compound COC(=O)C1=C(C)NC(C)=C(C(=O)OCCN(C)Cc2ccccc2)C1c1cccc([N+](=O)[O-])c1 (centres undefined) showed myelination equal to -21.2

The compound listed as O=C1NC(C(=O)O)CS1 (centres undefined) has a reported myelination of -59.9

myelination for NNC(=O)c1ccncc1 is 0.697

compound CCN(CC)CCOC(=O)c1ccc(N)cc1 , myelination observed: 23.1

# compound NS(=O)(=O)c1cc2c(cc1Cl)N=CNS2(=O)=O [Chlorothiazide] ; its myelination = 6.93

Entry C[C@]12CCC(=O)C=C1CC[C@@H]1[C@@H]2[C@@H](O)C[C@@]2(C)[C@H]1CC[C@]2(O)C(=O)CO [Hydrocortisone] ; myelination = -10.2

compound CC(C)C(=O)Nc1ccc([N+](=O)[O-])c(C(F)(F)F)c1 [Flutamide] , myelination observed: 5.48

Record COc1ccc(Cl)cc1C(=O)NCCc1ccc(S(=O)(=O)NC(=O)NC2CCCCC2)cc1 [Glyburide] , field myelination: -10.7

Input CN(C)[C@@H]1C(O)=C(C(N)=O)C(=O)[C@@]2(O)C(O)=C3C(=O)c4c(O)ccc(Cl)c4[C@@H](O)[C@H]3C[C@@H]12 . Output myelination: -12.1

Record OCCN1C[C@H](O)[C@@H](O)[C@H](O)[C@H]1CO , field myelination: -16.8

Given item CC1=C(/C=C/C(C)=C/C=C/C(C)=C\C(=O)O)C(C)(C)CCC1 , the value recorded as its myelination is -11.8

The reported myelination of the compound COc1c2occc2cc2ccc(=O)oc12 was -16.1

// C[C@H](CS)C(=O)N1CCC[C@H]1C(=O)O : myelination value = -9.32

Notebook: CN1CCN(c2c(F)cc3c(=O)c(C(=O)O)cn4c3c2SCC4)CC1 , myelination read as -35.3

response.value for NC(=O)c1cnccn1 [Pyrazinamide] (field: myelination) = -9.54
